System: A549
experimentSummary: Inhibition of growth of lung non-small cell carcinoma A-549 cell line
Assay type: functional
recordedConditions: Homo sapiens, read-out: ED50 (the source's name)
assayEndpoint: EC50 (µg/mL)
# unit: µg/mL | format: bare number

>  <compound>
COc1cc([C@@H]2c3cc4c(cc3[C@@H](CCN(C)CCN(C)C)C3COC(=O)[C@@H]32)OCO4)cc(OC)c1O.Cl.Cl (some centres undefined)

>  <valueUnits>
µg/mL

>  <EC50>
0.82

$$$$

Entry COc1cc([C@@H]2c3cc4c(cc3[C@@H](CCN3CCN(C)CC3)C3COC(=O)[C@@H]32)OCO4)cc(OC)c1O.Cl.Cl (some centres undefined) — recorded EC50 = 0.76

The value of EC50 measured for the compound COc1cc([C@@H]2c3cc4c(cc3[C@@H](O[C@@H]3O[C@@H]5CO[C@@H](C)O[C@H]5[C@H](O)[C@H]3O)[C@H]3COC(=O)[C@H]23)OCO4)cc(OC)c1O [ETOPOSIDE] turned out to be 2.9

Looking up COc1cc([C@@H]2c3cc4c(cc3[C@@H](CCN3CCC(N5CCCCC5)CC3)C3COC(=O)[C@@H]32)OCO4)cc(OC)c1O.Cl.Cl (some centres undefined) , I found its EC50 recorded as 1

---

assayedTarget: Tubulin (Bos taurus, UniProt Q6B856+Q862L2+Q862F3)
experimentSummary: Drug concentration needed to produce a 50% reduction of bovine brain tubulin polymerization relative to the control
Listing: IC50 of selected molecules

Recorded results for 2 molecules are shown here.
>  <molecule>
COc1cc([C@@H]2c3cc4c(cc3[C@@H](CC(=O)N(C)CCN(C)C)C3COC(=O)[C@@H]32)OCO4)cc(OC)c1O.Cl (stereo partly drawn)

>  <IC50>
> 100 µM

$$$$
>  <molecule>
COc1cc([C@@H]2c3cc4c(cc3[C@@H](CCN(C)CCCN(C)C)C3COC(=O)[C@@H]32)OCO4)cc(OC)c1O.Cl.Cl (stereo partly drawn)

>  <IC50>
> 100 µM

$$$$

Moving on to the next molecule.
The molecule listed as COc1cc([C@@H]2c3cc4c(cc3[C@@H](CC(=O)NCCN3CCCCC3)C3COC(=O)[C@@H]32)OCO4)cc(OC)c1O.Cl (stereo partly drawn) shows IC50 equal to > 100 µM

---

The reader will find reported EC50 values listed item by item below.
experimentSummary: Inhibition of growth of colon carcinoma COLO 2-1 cell line
Assay type: functional
recordedConditions: Homo sapiens, read-out: ED50 (the source's name)
Field format: number, assumed µg/mL, no unit text.

>  <molecule>
COc1cc([C@@H]2c3cc4c(cc3[C@@H](O[C@@H]3O[C@@H]5CO[C@@H](C)O[C@H]5[C@H](O)[C@H]3O)[C@H]3COC(=O)[C@H]23)OCO4)cc(OC)c1O [ETOPOSIDE]

>  <EC50 / µg/mL>
59

$$$$
>  <molecule>
COc1cc([C@@H]2c3cc4c(cc3[C@@H](CCN3CCN(C)CC3)C3COC(=O)[C@@H]32)OCO4)cc(OC)c1O.Cl.Cl (stereo not given in full)

>  <EC50 / µg/mL>
9.3

$$$$

# molecule COc1cc([C@@H]2c3cc4c(cc3[C@@H](CCN3CCC(N5CCCCC5)CC3)C3COC(=O)[C@@H]32)OCO4)cc(OC)c1O.Cl.Cl (stereo not given in full) ; its EC50 = 13

COc1cc([C@@H]2c3cc4c(cc3[C@@H](CCN(C)CCN3CCCCC3)C3COC(=O)[C@@H]32)OCO4)cc(OC)c1O.Cl.Cl (stereo not given in full) yielded EC50 of 29

COc1cc([C@@H]2c3cc4c(cc3[C@@H](CCN(C)CCN(C)C)C3COC(=O)[C@@H]32)OCO4)cc(OC)c1O.Cl.Cl (stereo not given in full) has a reported EC50 of 13
